subjectOfTest: UniProtKB Q99594
assayRemarks: ELISA assay in H226 cells, TEAD3
Type: cell-based
Parameters: endogenous in cells; host or cells: H226
Sequence (Q99594 2-435 limits assumed): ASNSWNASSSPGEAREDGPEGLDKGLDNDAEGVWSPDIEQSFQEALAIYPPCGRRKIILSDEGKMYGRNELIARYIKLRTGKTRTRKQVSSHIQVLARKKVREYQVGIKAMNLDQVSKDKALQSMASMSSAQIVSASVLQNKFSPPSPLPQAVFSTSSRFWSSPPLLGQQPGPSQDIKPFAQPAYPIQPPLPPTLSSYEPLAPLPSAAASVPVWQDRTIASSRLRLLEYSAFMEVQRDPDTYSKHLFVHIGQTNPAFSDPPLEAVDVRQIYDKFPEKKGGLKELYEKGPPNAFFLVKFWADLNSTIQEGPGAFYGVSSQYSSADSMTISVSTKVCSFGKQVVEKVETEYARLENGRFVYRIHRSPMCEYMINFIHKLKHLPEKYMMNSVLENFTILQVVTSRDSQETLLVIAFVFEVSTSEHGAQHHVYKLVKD
propertyMeasured: pIC50
The quantity pIC50 is defined as the negative base-10 logarithm of the molar concentration.

(Q) Which measured pIC50 belongs to `C=CC(=O)N1CC(/C=C/c2ccc(C(F)(F)F)cc2)C1` , tested on UniProtKB Q99594?
(A) 8.40

* * *

System: NCI-H226 cells
assayRemarks: Cell proliferation and viability assay (CPA) in NCI-H226 cells
Type: cell-based
experimentalConditions: Homo sapiens, 144 h, up to 6 d, read-out: CPA NCI-H226 IC50 Ave
Method: Compound potency and efficacy in inhibiting cell proliferation and viability was assessed in multiple cell lines. […] Viable cells were measured by CellTiter-Glo 2.0 Cell Viability Assay (Promega #G9243), and the luminescence signal was read using an EnSight Multimode plate reader (PerkinElmer, model 9MLDHH34000000, integration time 100 ms) with Kaleido 3.0. software. […]
propertyMeasured: IC50

(Q) Look up IC50 for this compound: `C=CC(=O)N1CC[C@H](C/C=C/c2ccc(C(F)(F)F)cc2)C1`
(A) 100 to 500 nM

(Q) What IC50 value was documented for this compound, `C=CC(=O)N1CC(/C=C/c2ccc(C(F)(F)F)cc2)C1` ?
(A) 100 to 500 nM

* * *

subjectOfTest: TEAD2 (Homo sapiens)
Sequence (Q15562 whole entry): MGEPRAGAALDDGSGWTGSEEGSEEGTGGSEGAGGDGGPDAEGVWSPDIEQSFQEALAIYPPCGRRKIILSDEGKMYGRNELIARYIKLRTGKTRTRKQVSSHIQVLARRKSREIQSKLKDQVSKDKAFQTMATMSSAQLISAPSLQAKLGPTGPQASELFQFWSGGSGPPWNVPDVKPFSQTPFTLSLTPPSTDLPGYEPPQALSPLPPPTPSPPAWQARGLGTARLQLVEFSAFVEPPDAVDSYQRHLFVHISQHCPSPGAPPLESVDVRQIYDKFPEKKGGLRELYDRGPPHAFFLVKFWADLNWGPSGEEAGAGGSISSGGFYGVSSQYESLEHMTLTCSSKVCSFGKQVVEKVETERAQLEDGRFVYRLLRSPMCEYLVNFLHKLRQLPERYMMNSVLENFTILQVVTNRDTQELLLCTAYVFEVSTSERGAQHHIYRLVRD
assayRemarks: ELISA assay in H226 cells, TEAD2
Type: cell-based
Design: endogenous in cells; host or cells: H226
propertyMeasured: IC50 (nM)
Field format: number, assumed nM, no unit text.

(Q) Using the record for `C=CC(=O)N1CC(/C=C/c2ccc(C(F)(F)F)cc2)C1` , report its IC50.
(A) 179

* * *

Exercise: for every item that follows, state its recorded TEAD3 Inh (palmitoylation).
subjectOfTest: TEAD3 (Homo sapiens, UniProt Q99594)
assayRemarks: Palmitoylation assay, TEAD3 (HEK293T cells)
Format: cell-based
Parameters: unspecified tag; expressed in transfected cells; host or cells: HEK293T
experimentalConditions: 3 um compound, 24 hours
Sequence (Q99594 whole entry): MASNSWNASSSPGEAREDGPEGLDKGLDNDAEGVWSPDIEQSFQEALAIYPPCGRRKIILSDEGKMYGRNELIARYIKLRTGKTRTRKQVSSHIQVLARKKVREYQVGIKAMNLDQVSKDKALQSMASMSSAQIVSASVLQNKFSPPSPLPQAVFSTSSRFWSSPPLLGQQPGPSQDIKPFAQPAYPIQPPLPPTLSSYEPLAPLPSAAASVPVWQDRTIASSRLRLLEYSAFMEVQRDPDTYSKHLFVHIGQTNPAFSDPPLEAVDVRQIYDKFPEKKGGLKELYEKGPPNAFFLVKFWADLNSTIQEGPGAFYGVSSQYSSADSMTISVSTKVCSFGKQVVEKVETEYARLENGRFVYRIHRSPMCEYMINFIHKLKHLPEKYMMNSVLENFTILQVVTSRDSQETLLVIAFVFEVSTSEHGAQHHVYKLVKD
Just the number please, in %, no unit attached.

(Q) For the compound shown here, C=CC(=O)N1C[C@@H](/C=C/c2ccc(C(F)(F)F)cc2)[C@H](Nc2ncccn2)C1 (single isomer, unassigned) [Example 83] , give the reported TEAD3 Inh (palmitoylation).
(A) 90

(Q) Tell me the measured TEAD3 Inh (palmitoylation) of C=CC(=O)N1CCC(C#Cc2ccc(C(F)(F)F)cc2)C1 (stereo not drawn) [Example 38] , please.
(A) 95

(Q) TEAD3 Inh (palmitoylation) lookup needed for C=CC(=O)N1CC(/C=C/c2ccc(C(F)(F)F)cc2)C1 [Example 15] , thanks.
(A) 98

(Q) Would you kindly share the measured TEAD3 Inh (palmitoylation) for C=CC(=O)N1CC[C@H](/C=C/c2ccc(C(F)(F)F)cc2)C1 (single isomer, unassigned) [Example 10] ?
(A) 98

(Q) Query (compound): C=CC(=O)N1CC(/C=C/c2cc(C(F)(F)F)on2)C1 [Example 21] ; field requested: TEAD3 Inh (palmitoylation)
(A) 96

(Q) Please look up its TEAD3 Inh (palmitoylation): C=CC(=O)N1C[C@@H](C)[C@H](/C=C/c2ccc(C(F)(F)F)cc2)C1 (stereo in doubt) [Example 39]
(A) 90

* * *

Could you please report measured pIC50 for the items listed next?
subjectOfTest: TEAD4 (Homo sapiens, UniProt Q15561)
Sequence (Q15561 whole entry): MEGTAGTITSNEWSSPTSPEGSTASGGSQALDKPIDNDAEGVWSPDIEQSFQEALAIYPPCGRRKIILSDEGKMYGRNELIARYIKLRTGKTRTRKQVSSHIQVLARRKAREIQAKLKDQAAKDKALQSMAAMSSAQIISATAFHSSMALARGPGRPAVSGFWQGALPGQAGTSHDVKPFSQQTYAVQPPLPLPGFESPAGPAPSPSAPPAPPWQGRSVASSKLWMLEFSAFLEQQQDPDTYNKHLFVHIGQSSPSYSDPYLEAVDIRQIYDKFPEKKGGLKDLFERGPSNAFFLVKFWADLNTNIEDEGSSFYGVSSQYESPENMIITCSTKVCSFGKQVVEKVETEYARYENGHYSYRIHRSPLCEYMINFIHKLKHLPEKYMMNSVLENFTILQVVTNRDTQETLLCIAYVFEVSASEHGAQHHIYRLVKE
assayRemarks: ELISA assay in H226 cells, TEAD4
experimentalConditions: overnight
When answering, recall that pIC50 equals minus log10 of the concentration in mol/L, and write that number alone.

(Q) I am curious: what pIC50 value has been reported for C=CC(=O)N1CCC(C#Cc2ccc(C(F)(F)F)cc2)C1 (stereo not drawn) ?
(A) 7.81

(Q) Fill blank: measured pIC50 of the compound C=CC(=O)N1CC[C@H](/C=C/c2ccc(C(F)(F)F)cc2)C1 (single isomer, unassigned) is ____.
(A) 6.00

(Q) Entry C=CC(=O)N1C[C@@H](/C=C/c2ccc(C(F)(F)F)cc2)[C@H](Nc2ncccn2)C1 (single isomer, unassigned) has what pIC50?
(A) 6.66

* * *

subjectOfTest: TEAD2 (Homo sapiens)
assayRemarks: Palmitoylation assay, TEAD2 (HEK293T cells)
Type: cell-based
Design: unspecified tag; expressed in transfected cells; host or cells: HEK293T
experimentalConditions: 3 um compound, 24 hours
Would you kindly list TEAD2 Inh (palmitoylation) for each of these compounds?
Just the number please, in %, no unit attached.

(Q) // TEAD2 Inh (palmitoylation) lookup, key: C=CC(=O)N1C[C@@H](C)[C@H](/C=C/c2ccc(C(F)(F)F)cc2)C1 (stereo in doubt)
(A) 32

(Q) Request the reported TEAD2 Inh (palmitoylation) associated with C=CC(=O)N1CCC(C#Cc2ccc(C(F)(F)F)cc2)C1 (stereo not drawn)
(A) 69

(Q) Fill blank: measured TEAD2 Inh (palmitoylation) of the compound C=CC(=O)N1C[C@@H](/C=C/c2ccc(C(F)(F)F)cc2)[C@H](Nc2ncccn2)C1 (single isomer, unassigned) is ____.
(A) 54
